- System: U-251
- ASSAY: NCI tumour cell line growth inhibition, 48 h
Active and inactive are the calls of the source. No stated cut-off is given here; in the data, active = GI50 up to about 1.1 µM and inactive = higher.
Recorded GI50, one value per entry.

Study these solved cases before continuing.
INSERT INTO measurements (chemical_string, readout_value) VALUES
  ('Nn1c(CCCl)nc2c(Br)cc(Br)cc2c1=O', '23.1 µM (inactive)'),
  ('Cc1cccc2nc(-c3ccccc3)cc(=O)n12', '> 100 µM (inactive)');

Turning now to a further record.
query: Give the reported GI50 for this compound. COc1cc2cnc(-c3ccccc3)cc2cc1OC
result: 19.8 µM (inactive)

---

- System: MDA-MB-231
- ASSAY: NCI tumour cell line growth inhibition, 48 h
Active and inactive are the calls of the source. No stated cut-off is given here; in the data, active = GI50 up to about 1.1 µM and inactive = higher.
Pick one: active, inactive

INSERT INTO results (compound, class_assignment) VALUES
  ('Clc1ccc2ns[s+]c2c1', 'inactive'),
  ('COc1cc2c(cc1OCCCCOc1cc(-c3ccc(F)cc3)nc(C)n1)N=C[C@@H]1CCCN1C2=O', 'active'),
  ('Nc1ncnc2c1ncn2[C@@H]1C[C@H]1CO', 'inactive'),
  ('O=C1CC(c2ccccc2Cl)C2(C(=O)NC(=S)NC2=O)C(c2ccccc2Cl)C1 (stereo not drawn)', 'inactive');

query: Please state the recorded outcome for this compound: CCc1nnc(CC)n1N1C(=O)CCC1=O
result: inactive

query: Please state the recorded outcome for this compound: CN1CCC(CNC(=O)CCCCCCCCC(=O)NCC2(c3ccccc3)CCN(C)CC2)(c2ccccc2)CC1
result: inactive

query: Please state the recorded outcome for this compound: O=C(NNC(=S)Nc1ccc(Cl)cc1)c1cc(-c2ccccc2)nc2ccccc12
result: inactive

---

- Test system: HT-29
- ASSAY: NCI tumour cell line growth inhibition, 48 h
Calls of active or inactive are those of the source. Rule as the data show it: active = GI50 up to about 1.1 µM and inactive = higher.
OBSERVED PROPERTY: GI50

Study these solved cases before continuing.
INSERT INTO results (compound, observed_property, readout_value) VALUES
  ('COc1ccc2c(c1)/C(=C\c1c(Cl)nc3n1CCS3)C(=O)N2', 'GI50', '3.25 µM (inactive)'),
  ('O=C(NNC(=S)Nc1ccc(Cl)cc1)c1cc(-c2ccccc2)nc2ccccc12', 'GI50', '8.73 µM (inactive)'),
  ('FC1=C2C3CCC(C3)C2C1(F)F (centres undefined)', 'GI50', '> 100 µM (inactive)');

query: Give the reported GI50 for this compound. Cn1c(=O)c(-c2ccccc2)c(O)c2ccccc21
result: > 100 µM (inactive)

query: Give the reported GI50 for this compound. CC1OC(OC2C(OC(=O)[C@]34CCC(C)(C)C[C@H]3C3=CC[C@@H]5[C@@]6(C)CC[C@H](OC7OC(CO)C(O)C(O)C7OC7OC(CO)C(O)C(O)C7O)C(C)(C)[C@@H]6CC[C@@]5(C)[C@]3(C)CC4)OCC(O)C2O)C(O)C(OC2OCC(O)C(O)C2O)C1OC1OCC(O)C(OC2OCC(O)C(O)C2O)C1O (some centres undefined)
result: 4.23 µM (inactive)

query: Give the reported GI50 for this compound. Cc1cc(SCC(=O)c2ccccc2)nc2ccccc12
result: 40.1 µM (inactive)

---

- Tested on: TK-10
- ASSAY: NCI tumour cell line growth inhibition, 48 h
Activity calls are given as the source filed them. Rule as the data show it: active = GI50 up to about 1.1 µM and inactive = higher.
Pick one: yes for active, no for inactive

Completed entries (count: 5):
INSERT INTO results (compound, study_target, class_assignment) VALUES
  ('O=C(CCC(=O)Nc1ccc(Cl)c(Cl)c1)CC(=O)c1ccc2ccccc2c1', 'TK-10', 'no'),
  ('CCOP(=O)(OCC)C(c1ccc(F)cc1)N(C(=O)NC(F)(F)F)c1ccc(F)cc1 (centres undefined)', 'TK-10', 'no'),
  ('CNc1ccc(C(=O)CC(O)CCC(C)C2OC(=O)CC(O)CC(=O)CC(O)CC(O)CC(O)CC(O)CC3(O)CC(O)C(C(=O)NCCN4CCOCC4)C(CC(OC4OC(C)C(O)C(N)C4O)\C=C/C=C\C=C/C=C/C=C/C=C\C=C/C2C)O3)cc1 (centres undefined)', 'TK-10', 'no'),
  ('NC1=NC(=O)C(CC(=O)Nc2ccc(Cl)cc2Cl)S1 (centres undefined)', 'TK-10', 'no'),
  ('C=CC(=O)C#Cc1cnc(OC)nc1OC', 'TK-10', 'no');

query: Please state the recorded outcome for this compound: CN1Cc2ccccc2C2(COc3ccccc3C2=O)C1 (centres undefined)
result: no

query: Please state the recorded outcome for this compound: CC(C)(C)C(=O)OCC1CCC(n2cnc3c(=O)[nH]c(N)nc32)O1 (centres undefined)
result: no

query: Please state the recorded outcome for this compound: C/C(=N/NC(=S)Nc1ccccc1C)c1ccccn1
result: yes

query: Please state the recorded outcome for this compound: CC1=C2N3C[C@@H](n4c(=O)n(C)c(=O)n43)C23CCC1n1c(=O)n(C)c(=O)n13
result: no
